# TARGET OR TEST SYSTEM: human SIRPα v2 expressed on cells (CHOK1 stable line KYinno KC-1720) (human) (UniProt P78324)
# TEST METHOD NOTES: FACS, CHOK1-hSIRPα v2 cells
I'd be grateful if you could share measured TOP MFI for these entries.
One number for each entry, in MFI.

BINDER	UNIT TEXT	TOP MFI
025c (antibody, V domains shown) VH: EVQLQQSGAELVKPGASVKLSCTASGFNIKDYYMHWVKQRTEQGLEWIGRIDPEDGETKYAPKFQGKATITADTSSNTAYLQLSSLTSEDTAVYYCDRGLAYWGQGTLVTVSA VL: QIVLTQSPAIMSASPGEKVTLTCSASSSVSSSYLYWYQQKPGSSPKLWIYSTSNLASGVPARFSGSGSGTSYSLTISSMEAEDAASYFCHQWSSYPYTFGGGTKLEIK	MFI	53000
hu025.023 (antibody, V domains shown) VH: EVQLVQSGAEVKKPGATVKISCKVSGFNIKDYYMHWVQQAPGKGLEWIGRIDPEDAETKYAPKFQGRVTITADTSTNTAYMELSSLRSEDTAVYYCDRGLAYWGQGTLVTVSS VL: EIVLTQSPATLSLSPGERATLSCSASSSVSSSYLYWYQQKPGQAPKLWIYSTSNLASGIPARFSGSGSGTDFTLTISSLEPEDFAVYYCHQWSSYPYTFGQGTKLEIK	MFI	45800

Next:
The value of TOP MFI measured for the binder hu025.060 (antibody, V domains shown) VH: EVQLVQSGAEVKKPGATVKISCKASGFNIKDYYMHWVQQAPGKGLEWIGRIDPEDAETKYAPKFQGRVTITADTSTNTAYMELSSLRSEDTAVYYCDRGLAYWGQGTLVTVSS VL: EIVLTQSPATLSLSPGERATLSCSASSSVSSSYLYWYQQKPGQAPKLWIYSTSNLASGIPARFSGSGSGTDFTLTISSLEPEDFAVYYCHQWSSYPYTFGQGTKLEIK turned out to be 48800
